The reported numbers originate from ChEMBL document CHEMBL1152332.

Activity reference
Tested on: CCRF-CEM
test-name: Cell cycle arrest in human CCRF-CEM cells assessed as accumulation at G0 phase at 1 uM treated for 3 hrs measured for 15 hrs after nocodazole treatment by flow cytometry in presence of mitotic inhibitor nocodazole
Type: functional
quantity-kind: Activity (%)

O=C1c2c[n+]([O-])c3ccccc3c2C(=O)c2[nH]c3ccccc3c21 [CALOTHRIXIN A]: 13.3
C[n+]1cc2c(c3ccccc31)C(=O)c1[nH]c3ccccc3c1C2=O.[I-] [N-METHYLCALOTHRIXIN B]: 6.9
O=C1c2[nH]c3ccccc3c2C(=O)c2cnc3ccccc3c21 [CALOTHRIXIN B]: 7.4
CC[C@@]1(O)C(=O)OCc2c1cc1n(c2=O)Cc2cc3ccccc3nc2-1 [CAMPTOTHECIN]: 23.6

###

Test system: CCRF-CEM
test-name: Cell cycle arrest in human CCRF-CEM cells assessed as accumulation at S phase at 1 uM treated for 3 hrs measured for 15 hrs after nocodazole treatment by flow cytometry in presence of mitotic inhibitor nocodazole
Assay type: functional
Activity reference
quantity-kind: Activity (%)

O=C1c2c[n+]([O-])c3ccccc3c2C(=O)c2[nH]c3ccccc3c21: 8.7
O=C1c2[nH]c3ccccc3c2C(=O)c2cnc3ccccc3c21: 4.8
C[n+]1cc2c(c3ccccc31)C(=O)c1[nH]c3ccccc3c1C2=O.[I-]: 4.9
CC[C@@]1(O)C(=O)OCc2c1cc1n(c2=O)Cc2cc3ccccc3nc2-1: 10.3
